Target: T1, Human PTGFRN-ECD (extracellular domain; amino-acid 26 to amino-acid Y at 832), His-tag protein (human, UniProt Q9P2B2 26-832)
T1 construct: range 26-832; Expressed in Hek-293 cells, purified on a nickel column; also called recombinant PTGFRN; not shown: His-tag
T1 sequence (looked up): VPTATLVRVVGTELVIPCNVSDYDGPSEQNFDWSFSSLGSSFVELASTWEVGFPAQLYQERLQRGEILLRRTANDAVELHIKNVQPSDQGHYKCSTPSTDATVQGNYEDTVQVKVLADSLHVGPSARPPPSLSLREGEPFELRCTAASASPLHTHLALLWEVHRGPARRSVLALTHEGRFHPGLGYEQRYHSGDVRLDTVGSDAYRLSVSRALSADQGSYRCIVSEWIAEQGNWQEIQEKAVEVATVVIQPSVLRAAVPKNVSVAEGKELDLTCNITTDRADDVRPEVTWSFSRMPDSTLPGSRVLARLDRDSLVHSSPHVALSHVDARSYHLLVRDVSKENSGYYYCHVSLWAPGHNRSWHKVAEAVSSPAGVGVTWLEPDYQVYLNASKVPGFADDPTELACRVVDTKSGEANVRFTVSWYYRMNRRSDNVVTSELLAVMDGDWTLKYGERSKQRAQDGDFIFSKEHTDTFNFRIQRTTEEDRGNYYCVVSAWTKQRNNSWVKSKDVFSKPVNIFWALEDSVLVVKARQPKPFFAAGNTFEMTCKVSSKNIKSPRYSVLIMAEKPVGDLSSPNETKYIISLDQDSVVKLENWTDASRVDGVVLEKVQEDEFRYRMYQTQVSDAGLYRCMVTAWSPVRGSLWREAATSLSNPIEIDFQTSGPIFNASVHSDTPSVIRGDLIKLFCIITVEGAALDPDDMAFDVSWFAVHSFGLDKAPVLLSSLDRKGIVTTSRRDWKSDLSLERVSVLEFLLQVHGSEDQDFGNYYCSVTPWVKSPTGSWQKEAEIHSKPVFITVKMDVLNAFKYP
Test: Octet Red96 pairing (binning matrix) on PTGFRN-ECD; capture Ab (1st loading Ab): 9D8
quantity.kind: Octet pairing response
One number for each entry.

Field: Octet pairing response. Fill in for each record below.
1. 10D9 (antibody, V domains shown, Mouse hybridoma mAb) VH: DVQLQESGPGLVKPSQSLSLTCSVTGCSITSGYDWNWIRQFPGNKLEWMGYINYDGNSNYIPSLKNRVSITRDTSKNQFFLKLNSVTTEDTATYYCARSDGYYWYFDVWGTGTTVTVSS VL: DIKMTQSPSSMYASLGERVTITCKASQDIKSYLSWYQQKPWKSPKTLIYYATSLADGVPSRFSASGSGQDYSLTISSLESDDTATYYCLQHAERPLTFGAGTKLELK
2. 1E2 (antibody, V domains shown, Mouse hybridoma mAb) VH: DVQLQESGPGLVKPSQSLSLTCSVTDYSITSGYYWNWIRQFPGNKLEWMGYISYDGSNNYNPSLKNRLSITRDTSKNQFFLKLNSVTPEDTATYYCARGWDYCFDYWGQGATLTVSS VL: DIQMTQTTSSLSASLGDRVTISCSASQGISNYLNWYQQKPDGTVKLLIYYTSGLHSGVPSRFSGSGSGTDYSLTISNLEPEDIATYYCQQYSQLPWTFGGGTKLEIK

[0.186, 0.184]
